Tgt: T1, HLA-DR15 (HLA-DRB1*15:01) (human)
T1 construct: mature; purified from homozygous EBV-transformed lymphoblastoid cells with antibody L243
Protocol notes: competition ELISA vs biotin-A3 152-166
No end group written: not given here.
Quantity kind: relative affinity
One number for each entry.

Past entries and their recorded results:
{"columns": ["Binder", "Endpoint result"],
 "data": [
  ["VQMKFRLLQETMYMT-NH2 [CCNB1 212-226]", 46],
  ["RPLPLHFLRRASKIG-NH2 [CCNB1 299-313]", 200],
  ["TAMFIASKYEEMYPP-NH2 [CCNB1 250-264]", 9],
  ["FRLLQETMYMTVSII-NH2 [CCNB1 216-230]", 3]
]}

For each entry beneath this line, provide reported relative affinity.
1. MTVSIIDRFMQNNCV-NH2 [CCNB1 225-239]
2. GDFAFVTDNTYTKHQ-NH2 [CCNB1 267-281]
3. GNMRAILIDWLVQVQ-NH2 [CCNB1 199-213]

1. 2
2. 86
3. 1
